Values were extracted from BigSolDB 2.1.

settings: in dichloromethane, 313.15 K
metric: solubility (mole fraction)

Entry CC1CCC(=O)C1=O (stereo unspecified) , solubility (mole fraction) reported as 0.333

====

details: in n-propanol, 288.15 K
metric: solubility (mole fraction)
Field format: numeric only.

Entry CC1CCC(=O)C1=O (stereo unspecified) , solubility (mole fraction) reported as 0.0581

====

conditions: in ethyl formate, 283.15 K
metric: solubility (mole fraction)
Field format: numeric only.

Entry CC1CCC(=O)C1=O (stereo unspecified) , solubility (mole fraction) reported as 0.0603

====

conditions: in 1,2-dichloroethane, 293.15 K
metric: solubility (mole fraction)
Field format: numeric only.

Entry CC1CCC(=O)C1=O (stereo unspecified) , solubility (mole fraction) reported as 0.122

====

conditions: in acetone, 293.15 K
metric: solubility (mole fraction)
Field format: numeric only.

Entry CC1CCC(=O)C1=O (stereo unspecified) , solubility (mole fraction) reported as 0.152

====

conditions: in 1,2-dichloroethane, 298.15 K
metric: solubility (mole fraction)
Field format: numeric only.

Entry CC1CCC(=O)C1=O (stereo unspecified) , solubility (mole fraction) reported as 0.153

====

conditions: in isobutanol, 313.15 K
metric: solubility (mole fraction)
Field format: numeric only.

Entry CC1CCC(=O)C1=O (stereo unspecified) , solubility (mole fraction) reported as 0.211

====

conditions: in acetonitrile, 298.15 K
metric: solubility (mole fraction)
Field format: numeric only.

Entry CC1CCC(=O)C1=O (stereo unspecified) , solubility (mole fraction) reported as 0.11

====

details: in 1,2-dichloroethane, 288.15 K
metric: solubility (mole fraction)
Field format: numeric only.

Entry CC1CCC(=O)C1=O (stereo unspecified) , solubility (mole fraction) reported as 0.0992

====

conditions: in isobutanol, 298.15 K
metric: solubility (mole fraction)

Entry CC1CCC(=O)C1=O (stereo unspecified) , solubility (mole fraction) reported as 0.0866

====

conditions: in dichloromethane, 303.15 K
metric: solubility (mole fraction)
Field format: numeric only.

Entry CC1CCC(=O)C1=O (stereo unspecified) , solubility (mole fraction) reported as 0.251

====

conditions: in methanol, 298.15 K
metric: solubility (mole fraction)
Field format: numeric only.

Entry CC1CCC(=O)C1=O (stereo unspecified) , solubility (mole fraction) reported as 0.119

====

conditions: in dichloromethane, 308.15 K
metric: solubility (mole fraction)

Entry CC1CCC(=O)C1=O (stereo unspecified) , solubility (mole fraction) reported as 0.292
